This listing pairs variants with measured protein stability index.
B1: POMT2 (parent)
chain: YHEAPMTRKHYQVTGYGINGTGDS

variants of: B1; test: protein stability index of a GFP-peptide fusion (GPS, HEK-293T) (PSI 1-6); higher = more stable; conditions: c terminus: a fixed tail appended;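 note: lentivirally expressed fusions sorted by FACS into six bins by GFP to DsRed ratio, PSI derived from sequencing read proportions per bin multiplied by bin number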

Inquiry: If you can, please state the reported protein stability index value of G20E .
Reply text: 2.4

Inquiry: Data request, read-out protein stability index, for P5T
Reply text: 2.02

Inquiry: Would you mind telling me what protein stability index value was observed for E3D ?
Reply text: 2.15

Inquiry: Using the record for G17S , report its protein stability index.
Reply text: 1.62

Inquiry: Give its protein stability index value. Item: T14R
Reply text: 2.13
